Tested on: SOX2
Test: Screen of a library of FDA-approved drugs for SOX2 antibody staining in A375 cells treated with PLX4720 and AZD6244
Settings: A375 cells, 5 uM test drug with 1 uM PLX4720 and 0.5 uM AZD6244, 24 h; raw signal (ratio of FL2 SOX2 antibody and FL3 nuclear staining); screen run in duplicate
Would you kindly list raw for each of these sequences?
Answer as a number with no unit attached.

Ask: Recorded raw of MONENSIN SODIUM , please.
Result: 0.9761

Ask: Recorded raw of GRAMICIDIN [GRAMICIDIN (gramicidin A shown)] , please.
Result: 0.9705

Ask: Recorded raw of IVERMECTIN , please.
Result: 0.9726

Ask: Recorded raw of ABAMECTIN [ABAMECTIN (avermectin B1a shown)] , please.
Result: 0.9779
